assay.text: NOD1 signaling inhibitors, primary screen, cell-based, luminescence, uHTS (AID 1578);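 further: HEK-293T reporter cells stimulated with the NOD1 agonist gamma-tri-DAP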
condition.notes: NOD1-driven NF-kB luciferase reporter cells, at 4 µM
Among all 290,000 compounds or so, about 3,000 (1%) were called active. No stated cut-off is given here; in the data, active means inhibition mostly above about 36% (no sharp cut-off); inactive means mostly below about 34%. Shown is part of a subset that was picked to be rich in actives.
The reply should be one of these categories: active, inactive

Completed entries (count: 5):
>>> df
                                   molecule  answer_label
0    CCC(O)(CC)C(=O)N/N=C/c1cc(Br)cc(Br)c1O      inactive
1           COc1ccc(CC(=O)Nc2ccc(OC)nc2)cc1      inactive
2  CCCn1c(=O)c(C(=O)NNC(=O)c2ccc(Cl)cc2Cl)c(O)c2ccccc21      inactive
3  C=CCn1c(Oc2cccc(C)c2)nc2c1c(=O)n(C)c(=O)n2C      inactive
4  Oc1c(Br)cc(Br)cc1/C=N/NC(=S)N[C@H]1CC2C=CC1C2 (some centres not stated)        active

Exam item: Hello, I am checking results. What call was entered for Clc1ccc(N/N=C/c2ccncc2)cc1Cl ?
Marked response: inactive

Exam item: Now give it for Clc1cncc(Cl)c1N/N=C/c1ccccc1 too.
Marked response: inactive

Exam item: Now give it for O=C(O)CSc1ncnc2sc(-c3ccccc3)cc12 too.
Marked response: inactive

Exam item: Now give it for Oc1c(Cl)cc(Cl)cc1/C=N/NC(=S)NC1CC2C=CC1C2 (configuration not stated) too.
Marked response: inactive

Exam item: Now give it for CC(=O)CCSc1ncnc2sc(-c3ccccc3)cc12 too.
Marked response: inactive

Exam item: Now give it for Oc1c(Br)cc(/C=N/NC(=S)NCc2ccco2)cc1Br too.
Marked response: inactive

Exam item: Now give it for Oc1ccccc1/C=N/NC(=S)NC1CC2C=CC1C2 (configuration not stated) too.
Marked response: inactive

----------
assay.text: NOD1 signaling inhibitors, primary screen, cell-based, luminescence, uHTS (AID 1578);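 further: HEK-293T reporter cells stimulated with the NOD1 agonist gamma-tri-DAP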
condition.notes: NOD1-driven NF-kB luciferase reporter cells, at 4 µM
Out of some 290,000 compounds screened, about 3,000 (1%) were called active. No stated cut-off is given here; in the data, active means inhibition mostly above about 36% (no sharp cut-off); inactive means mostly below about 34%. This excerpt belongs to a sample that is enriched for actives.
The reply should be one of these categories: active, inactive

Completed entries (count: 8):
In [3]: df
Out[3]:
                                   compound  answer_label
0  Cc1cccc(OCC(=O)NNC(=O)CSc2ncc(C#N)c(N)n2)c1        active
1          O=c1cc(C(F)(F)F)oc2c1ccc1ccccc12      inactive
2  Cc1cccc(C(P(=O)(c2ccccc2)c2ccccc2)P(=O)(c2ccccc2)c2ccccc2)n1      inactive
3      CCCn1c(N)c(Sc2ccccc2)c(=O)n(CCC)c1=O      inactive
4  CC(=O)Nc1cccc(NC(=O)c2ccc(C(=O)Nc3cccc(NC(C)=O)c3)nc2)c1      inactive
5  Cc1ccc(OCC(=O)NNC(=O)CSc2ncc(C#N)c(N)n2)cc1      inactive
6  CC(Oc1ccc([N+](=O)[O-])cc1)C(=O)NCCCN1CCOCC1 (stereo unspecified)      inactive
7  COc1ccc(C2NC(=O)CCC2[N+](=O)[O-])cc1 (stereo unspecified)      inactive

Exam item: Hello, I am checking results. What call was entered for N#Cc1cnc(SCC(=O)NNC(=O)COc2cccc3ccccc23)nc1N ?
Marked response: inactive

Exam item: Now give it for CN(C)c1ccc(/C=C2\C(=N)N3N=C(CC(=O)N4CCCC4)SC3=NC2=O)cc1Br too.
Marked response: inactive

Exam item: Now give it for Cc1ccc(OCC(O)CN2C(=O)NC(C)(C)C2=O)c(C)c1 (stereo unspecified) too.
Marked response: inactive

----------
assay.text: NOD1 signaling inhibitors, primary screen, cell-based, luminescence, uHTS (AID 1578);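 further: HEK-293T reporter cells stimulated with the NOD1 agonist gamma-tri-DAP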
condition.notes: NOD1-driven NF-kB luciferase reporter cells, at 4 µM
Hit rate of the full screen: of about 290,000 compounds, about 3,000 (1%) were called active. Cut-off read from the data, not from the text of the source: active = inhibition mostly above about 36% (no sharp cut-off); inactive = mostly below about 34%. The full list was thinned out, with actives kept by preference.
The reply should be one of these categories: active, inactive

Completed entries (count: 10):
>>> df
                                   compound  answer_label
0  CC1Sc2ccc(S(=O)(=O)N3CCC(C(=O)Nc4cccc(Cl)c4)CC3)cc2NC1=O (stereo not drawn)      inactive
1  CCc1ccc(NC(=O)C2CCN(S(=O)(=O)c3ccc4c(c3)NC(=O)C(C)S4)CC2)cc1 (stereo not drawn)      inactive
2  CC1CCc2c(sc(NC(=O)c3ccco3)c2C(=O)O)C1 (stereo not drawn)      inactive
3                         Cc1cc(C(=O)O)sc1C      inactive
4     O=C(C[n+]1cc(Br)cc(Br)c1)c1ccc(Cl)cc1      inactive
5  Cc1ccc(NC(=O)C2CCN(S(=O)(=O)c3ccc4c(c3)NC(=O)C(C)S4)CC2)cc1C (stereo not drawn)      inactive
6      CCc1ccc(NC(=O)CSc2nnnn2-c2cccnc2)cc1      inactive
7  CCOc1cc(C2C(C(=O)OC)=CN(Cc3ccc(Cl)cc3)C=C2C(=O)OC)ccc1O      inactive
8    CN(C)S(=O)(=O)c1cccc(NC(=O)c2ccncc2)c1      inactive
9  Cc1ccc(CN2C3CCCC2CC(NC(=O)c2ccc(F)cc2)C3)cc1 (stereo not drawn)      inactive

Exam item: Hello, I am checking results. What call was entered for CSc1ccccc1-c1n[nH]c(=S)o1 ?
Marked response: inactive

Exam item: Now give it for Cc1ccc(NC(=O)COc2ncnc3cc([N+](=O)[O-])ccc23)cc1S(=O)(=O)N1CCOCC1 too.
Marked response: inactive

Exam item: Now give it for O=C(C1CCN(Cc2cn[nH]c2-c2ccc(F)cc2F)CC1)N1CCOCC1 too.
Marked response: inactive

Exam item: Now give it for OCCCC1CCCN(Cc2cn[nH]c2-c2ccc(F)cc2F)C1 (stereo not drawn) too.
Marked response: active

Exam item: Now give it for CCCCCNC(=O)C(=O)C1C(=O)Nc2ccccc21 (stereo not drawn) too.
Marked response: inactive

Exam item: Now give it for Cc1ccc(CN2C3CCCC2CC(NC(=O)c2ccc(C)cc2)C3)cc1 (stereo not drawn) too.
Marked response: inactive

Exam item: Now give it for NC(=O)c1c(NC(=O)C(=O)NCCCN2CCOCC2)sc2c1CCCC2 too.
Marked response: inactive

Exam item: Now give it for Cc1cc(-c2onc3ccc(Cl)cc23)ccc1O too.
Marked response: active

Exam item: Now give it for COC(=O)c1c(NC(=O)c2cccs2)sc2c1CCC(C)C2 (stereo not drawn) too.
Marked response: inactive

Exam item: Now give it for CCOC(=O)C1CCCN(Cc2cn[nH]c2-c2ccc(F)cc2F)C1 (stereo not drawn) too.
Marked response: inactive

Exam item: Now give it for Cc1cc(C)cc(NC(=O)C2CCN(S(=O)(=O)c3ccc4c(c3)NC(=O)C(C)S4)CC2)c1 (stereo not drawn) too.
Marked response: inactive

Exam item: Now give it for Cc1ccc(-c2onc3ccc(Cl)cc23)cc1 too.
Marked response: inactive

Exam item: Now give it for O=C1CCN(CCCc2ccccc2)CCN1[C@H](CO)Cc1ccccc1 too.
Marked response: inactive

----------
assay.text: NOD1 signaling inhibitors, primary screen, cell-based, luminescence, uHTS (AID 1578);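 further: HEK-293T reporter cells stimulated with the NOD1 agonist gamma-tri-DAP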
condition.notes: NOD1-driven NF-kB luciferase reporter cells, at 4 µM, active compounds read high
About 3,000 (1%) of roughly 290,000 compounds were called active. Many of the other results were omitted from the sample, so actives are more common in it than they were.
measured.parameter: inhibition

                                 smiles_str  measured_parameter    assay_result
0  Cc1cc(NC(=O)CSc2cn(CCNC(=O)c3ccc(Cl)cc3)c3ccccc23)no1          inhibition  75.9% (active)

Exam item: Field request: inhibition | item: CCn1c(C)cc(/C=C2\NC(=O)N(CC(=O)Nc3cccc(C)c3)C2=O)c1C
Marked response: 9.5% (inactive)

Exam item: Now give it for O=C(CSc1c(F)c(F)cc(F)c1F)Nc1ccc(C2SCCS2)cc1 too.
Marked response: -7.2% (inactive)

Exam item: Now give it for COc1ccc(NC(=O)Nc2c(C)noc2-c2ccccc2)cc1 too.
Marked response: -7.5% (inactive)

Exam item: Now give it for Cc1ccc(C(=O)NCCn2cc(SCC(=O)Nc3cc(C)on3)c3ccccc32)cc1 too.
Marked response: -10.3% (inactive)

----------
Measured inhibition accompanies every entry in the list below.
assay.text: NOD1 signaling inhibitors, primary screen, cell-based, luminescence, uHTS (AID 1578);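 further: HEK-293T reporter cells stimulated with the NOD1 agonist gamma-tri-DAP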
condition.notes: NOD1-driven NF-kB luciferase reporter cells, at 4 µM, active compounds read high
The whole screen tested about 290,000 compounds, of which about 3,000 (1%) were called active. This excerpt belongs to a sample that is enriched for actives.
Numbers only here, please. The scale is %.

Some solved entries appear below for comparison.
                                   molecule  measured_parameter  assay_result
0  O=C(CN1CCN(S(=O)(=O)c2ccc(Cl)cc2)CC1)c1ccc(O)c(O)c1          inhibition         -30.9
1  O=C(NC1CCCN(c2ccc(C(F)(F)F)cn2)C1)c1ccncc1 (stereo not given)          inhibition           -22
2  Cc1ccccc1C(=O)N1CCN(c2ccc(NC(=O)c3ccc4c(c3)OCO4)cc2)CC1          inhibition             3
3  COc1ccc(C(CCN(Cc2ccc(OC)c(OC)c2)C(=O)CCl)c2ccccc2)cc1 (stereo not given)          inhibition          82.9

Exam item: Field request: inhibition | item: C/C(COc1ccccc1)=N\NC(=O)c1nnn(-c2nonc2N)c1CSc1ccccc1
Marked response: -2.2
